- assay: Solubility of compound in fasted state simulated intestinal fluid
- Assay type: physicochemical
recorded endpoint: solubility (µg/mL)
Field format: number, assumed µg/mL, no unit text.

Please give the measured solubility for this molecule: CCNC(=O)Nc1ccc(-c2nc(N3CCOC[C@@H]3C)c3c(n2)C(C)(C)S(=O)(=O)C3)cc1
11.1

----------
- assay: Protein binding in mouse plasma
- Format: ADME, cell-free
- conditions used: read-out: PPB (converted)
recorded endpoint: fraction unbound

Returns the measured fraction unbound for the input molecule. Input: CCNC(=O)Nc1ccc(-c2nc(N3CCOC[C@@H]3C)c3c(n2)C(C)(C)S(=O)(=O)C3)cc1
0.11

----------
- assay: Cmax in Sprague-Dawley rat at 1 mg/kg, iv as bolus dose by LC-MS/MS analysis
- Type: ADME, organism-based
- Set-up: dose 1 mg/kg, route intravenous
- conditions used: in vivo
recorded endpoint: Cmax (nM)
Express it in nM; write the number only.

For CCNC(=O)Nc1ccc(-c2nc(N3CCOC[C@@H]3C)c3c(n2)C(C)(C)S(=O)(=O)C3)cc1 , what is its reported Cmax?
710

Where do the numbers come from? From ChEMBL document CHEMBL4431376.
